# assayProcedure: CREB reporter modulators under forskolin, primary screen, cell-based, PC12, CRE-LacZ reporter, forskolin-stimulated (AID 1146);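 further: PC12 cells with 6xCRE LacZ reporter stimulated by forskolin 10 µM; beta-galactosidase reporter signal reflecting CREB driven transcription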
# runConditions: luminescence, 4.5 h, higher = more signal, called active from +8 up or from −8 down

[
  {
    "molecule": "O=C(NC1CC1)[C@@H]1c2ccccc2C(=O)N(Cc2ccccc2Cl)[C@H]1c1ccc(CO)cc1",
    "z-score": -1.69
  },
  {
    "molecule": "CC(C)[Si]1(C(C)C)O[C@@H](c2ccccc2)c2cc(-c3ccc(-c4ccc(Cl)c(Cl)c4)o3)nc(-c3ccccc3)c21",
    "z-score": 2.02
  },
  {
    "molecule": "CC1CC/C=C\\[C@H]2OC34C=CCN(C(C)(C)C)C(=O)[C@H]3N(CCO)C(=O)[C@@H]4C2C(=O)O1 (some centres not stated)",
    "z-score": -0.237
  },
  {
    "molecule": "[N-]=[N+]=Nc1ccccc1[C@H]1OC(c2ccc(OCCCO)cc2)=N[C@@]1(CCS(=O)(=O)c1ccccc1)C(N)=O",
    "z-score": -1.12
  },
  {
    "molecule": "COCCCNC(=O)[C@@H]1c2ccccc2C(=O)N(Cc2ccccc2Cl)[C@H]1c1ccc(CO)cc1",
    "z-score": -0.268
  },
  {
    "molecule": "C=CCC(OC(C)=O)[C@@H]1[C@@H](N(Cc2ccc(-c3ccccc3)cc2)C(=O)c2cccc3ccccc23)c2cc(OCCCO)ccc2N1C(=O)c1ccc(-c2ccccc2)cc1 (some centres not stated)",
    "z-score": -0.531
  },
  {
    "molecule": "C=C(CCCC)C(=O)CC[C@@H](OC(=O)c1ccccc1-c1ccccc1C(=O)O)c1ccc(OCCO)cc1",
    "z-score": 1.8
  }
]

###

# assayProcedure: modulators of HCV replicon luciferase signal, primary screen, HCV replication inhibitor project, Huh7 cells, luciferase reporter (AID 1109);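 further: huh7 hepatoma cells harbouring a luciferase neomycin HCV replicon reporter; luciferase luminescence as measure of HCV replicon replication; test concentration not given here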
# runConditions: 48 h, higher = more signal
// z-score lookup, one value per entry

[
  {
    "compound": "COc1ccc(CCNC(=O)[C@@H]2c3ccccc3C(=O)N(Cc3ccccc3Cl)[C@H]2c2ccc(CO)cc2)cc1",
    "z-score": -1.37
  },
  {
    "compound": "COc1cc(NN2C(C(O)c3ccco3)C=CC3C(=O)N(c4ccccc4)C(=O)C32)cc(OC)c1OC (centres undefined)",
    "z-score": -0.937
  },
  {
    "compound": "COC(=O)[C@@]1(CCC(=O)OC(C)(C)C)N=C(c2ccc(OCCCO)cc2)O[C@H]1c1ccccc1N=[N+]=[N-]",
    "z-score": -1.85
  },
  {
    "compound": "CC(C)=CCCC(C)=CC(O)C1C=CC2C(=O)N(C)C(=O)C2N1Nc1ccccc1 (centres undefined)",
    "z-score": -2.28
  },
  {
    "compound": "CC(C)N1C(=O)[C@@]2(Cc3ccccc31)c1ccccc1C(=O)N(Cc1ccccc1Cl)[C@H]2c1ccc(CO)cc1",
    "z-score": -0.791
  },
  {
    "compound": "O=C(c1ccccc1)N1C(=O)[C@@]2(Cc3ccccc31)N=C(c1ccc(OCCCO)cc1)O[C@H]2c1ccccc1",
    "z-score": -2.77
  },
  {
    "compound": "O=C1O[C@@H](c2ccccc2)[C@@H](c2ccccc2)N2[C@@H](c3ccccc3OCCO)[C@]3(C(=O)Nc4ccccc43)[C@@H](C(=O)Nc3nc4ccccc4s3)[C@H]12",
    "z-score": -3.25
  },
  {
    "compound": "CCC(CC)C(O)C1C=CC2C(=O)NC(=O)C2N1Nc1ccc(Cl)cc1Cl (centres undefined)",
    "z-score": -0.759
  },
  {
    "compound": "COc1cc2c(cc1OC)CN(C(=O)[C@H]1[C@@H]3C(=O)O[C@@H](c4ccccc4)[C@@H](c4ccccc4)N3[C@@H](c3ccc(O)cc3)[C@]13C(=O)Nc1ccccc13)CC2",
    "z-score": -2.54
  },
  {
    "compound": "COc1cc2c(cc1O)C(C1CC1)N(Cc1sc3ccccc3c1Cl)CC2 (centres undefined)",
    "z-score": -2.87
  },
  {
    "compound": "CCS[C@H]1[C@@H](C(=O)O)[C@H](c2ccc(C)cc2)N(S(=O)(=O)c2ccc(C)cc2)[C@@H]1CC",
    "z-score": 0.841
  },
  {
    "compound": "COc1ccc([Si](C)(C)[C@H]2[C@H](CCO)O[C@@]3(C(=O)N(Cc4ccc(N(C=O)c5ccccc5)cc4)c4ccccc43)[C@@H]2C)cc1",
    "z-score": -4.65
  },
  {
    "compound": "CO[C@H]1O[C@H](CO)[C@@H](OC(=O)Nc2ccc(C(F)(F)F)cc2)[C@H](OC(=O)Nc2ccc3c(c2)OCO3)[C@@H]1OC(=O)Nc1ccc2c(c1)OCO2",
    "z-score": -2.44
  },
  {
    "compound": "COCCOC(=O)N1C(=O)[C@@]2(c3cc(C#CC4(O)CCCCCC4)ccc31)[C@H](c1ccc(OCCO)cc1)N1[C@H](c3ccccc3)[C@H](c3ccccc3)OC(=O)[C@H]1[C@@H]2C(=O)N1CCN(c2ncccn2)CC1",
    "z-score": -1.77
  }
]

###

# assayProcedure: PSAC antagonists in infected red cells, primary screen, cell-based, P. falciparum Indochina, OD700, 18 h (AID 1157)
# runConditions: P. falciparum Indochina infected erythrocytes, osmotic lysis OD700, 18 h; higher = more signal, called active from +8 up or from −8 down
observationType: z-score

[
  {
    "structureSmiles": "C=C[C@H](OC)[C@@H](OC(=O)Nc1ccc(OC)cc1)c1ccc(O)c(F)c1",
    "observationType": "z-score",
    "valueMeasured": 0.253
  },
  {
    "structureSmiles": "COc1ccc(C#Cc2ccc3c(c2)[C@]2(C(=O)N3)[C@H](c3ccccc3OCCO)N3[C@H](c4ccccc4)[C@H](c4ccccc4)OC(=O)[C@H]3[C@@H]2C(=O)Nc2nc3ccccc3s2)cc1",
    "observationType": "z-score",
    "valueMeasured": 0.457
  },
  {
    "structureSmiles": "C=CCOC(=O)[C@H]1[C@@H]2C(=O)O[C@@H](c3ccccc3)[C@@H](c3ccccc3)N2[C@@H](c2ccc(OCCOC(=O)[C@H]3C[C@H]4C(=O)N[C@@H](CCCCNC(C)=O)C(=O)N4[C@H]3c3ccc(O)cc3)cc2)[C@]12C(=O)Nc1ccc(I)cc12",
    "observationType": "z-score",
    "valueMeasured": -0.214
  },
  {
    "structureSmiles": "COc1ccc([Si](C)(C)[C@@H]2[C@@H](CC(=O)N3CCC[C@H]3CO)O[C@]3(C(=O)N(c4ccccc4)c4ccccc43)[C@H]2C)cc1",
    "observationType": "z-score",
    "valueMeasured": -1.44
  },
  {
    "structureSmiles": "COC(=O)[C@@]1(Cc2ccc(OC)cc2)[C@H]2c3cc(C(=O)N(C)C)n(Cc4ccc(S(C)(=O)=O)cc4)c3C[C@H]2CN1C(=O)c1ccccc1",
    "observationType": "z-score",
    "valueMeasured": -0.336
  },
  {
    "structureSmiles": "C=C(CC1([C@@H](NP(=O)(c2ccccc2)c2ccccc2)[C@H]2C[C@@H]2CCCC)CC1)c1ccccc1",
    "observationType": "z-score",
    "valueMeasured": 0.935
  }
]

###

// composite z-score lookup, one value per entry
# assayTarget: Focal adhesion kinase 1 (Homo sapiens)
# assayProcedure: small-molecule microarray binders of FAK, primary screen, biochemical, 635/667 nm fluorescence, BSA, DTT (AID 1130);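 further: composite of spot emission at 667 nm and signal to noise over triplicate slides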
# runConditions: PTK2 binding, 635 nm fluorescence, higher = more signal

[
  {
    "molecule": "COc1cc2c(cc1OC)CN(C(=O)[C@@H]1[C@H]3C(=O)O[C@H](c4ccccc4)[C@H](c4ccccc4)N3[C@H](c3ccccc3OCCO)[C@@]13C(=O)Nc1ccc(C#CCCO)cc13)CC2",
    "composite z-score": 0.222
  },
  {
    "molecule": "COC(=O)[C@@]1(Cc2ccc(OC)cc2)[C@H]2c3cc(C(=O)N(C)C)n(CCc4ccccn4)c3C[C@H]2CN1C(=O)c1ccccc1",
    "composite z-score": 0.933
  },
  {
    "molecule": "CC(C)OC(=O)C=C1C[C@@H](c2ccccn2)O[C@@H](c2ccccn2)O1",
    "composite z-score": -0.19
  },
  {
    "molecule": "CN1C(=O)C2C=CC(C(O)c3ccccc3)N(N(c3ccccc3)c3ccccc3)C2C1=O (centres undefined)",
    "composite z-score": 0.112
  },
  {
    "molecule": "CC(C)(C)OC(=O)CC[C@]1(C(=O)N2CCOCC2)N=C(c2ccc(OCCCO)cc2)O[C@H]1c1ccccc1N=[N+]=[N-]",
    "composite z-score": 0.566
  },
  {
    "molecule": "COC(=O)[C@@]1(Cc2ccc(OC)cc2)[C@@H]2C(=CC(=O)[C@H]2CC(=O)C(=O)N2CCCC2)CN1C(=O)c1ccccc1",
    "composite z-score": 0.528
  },
  {
    "molecule": "COCCOC(=O)N1C(=O)[C@@]2(c3cc(C#Cc4ccc(OC)cc4)ccc31)[C@H](c1ccc(OCCO)cc1)N1[C@H](c3ccccc3)[C@H](c3ccccc3)OC(=O)[C@H]1[C@@H]2C(=O)N1CCN(c2ncccn2)CC1",
    "composite z-score": 0.424
  },
  {
    "molecule": "CCCCCCc1nc(-c2cc(C)c(OC)c(C)c2)cc2c1[Si](C(C)C)(C(C)C)OC2",
    "composite z-score": 0.0497
  },
  {
    "molecule": "[N-]=[N+]=NCc1ccccc1C[C@]1(C(N)=O)COC(c2ccc(OCCCO)cc2)=N1",
    "composite z-score": -0.0367
  },
  {
    "molecule": "C=C(COC)/C(=C/C[C@@H](OC(=O)c1ccncc1)c1ccc(CO)o1)c1cc(C(=O)OC)ccc1OC",
    "composite z-score": 0.987
  },
  {
    "molecule": "C=C[C@H](OC)[C@@H](OC(=O)Nc1ccc(OC)cc1)c1ccc(O)c(F)c1",
    "composite z-score": -0.585
  },
  {
    "molecule": "CCOC(=O)C[C@H]1[C@H](OC(=O)c2ccccc2-c2ccccc2)[C@@H](NC(=O)CC(C)C)c2cc(OCCCO)ccc2N1C(=O)Cc1ccc(OC)cc1",
    "composite z-score": -0.0432
  },
  {
    "molecule": "CCOC(=O)C[C@H]1[C@H](OC(=O)c2ccc(C(=O)c3ccccc3)cc2)[C@@H](NC(=O)c2ccccc2)c2cc(OCCCO)ccc2N1C(=O)c1ccc2ccccc2n1",
    "composite z-score": 0.281
  },
  {
    "molecule": "COC(=O)C(CC#Cc1ccc2c(c1)[C@]1(C(=O)N2)[C@H](c2ccc(OCCO)cc2)N2[C@H](c3ccccc3)[C@H](c3ccccc3)OC(=O)[C@H]2[C@@H]1C(=O)N1CCc2cc(OC)c(OC)cc2C1)C(=O)OC",
    "composite z-score": 0.343
  }
]
